Cited source for all entries: patent US9895352B2

Test: Pharmacokinetics, continuous infusion study in rat
Type: in vivo
Conditions: plasma, iv, 96 mg/kg/day
Reported metric: clearance (mL/min/kg)
Form entry: value (mL/min/kg) — number only.

Task: Which value of clearance has been reported for O=C(CC1(O)C(=O)Nc2c(Cl)ccc(Cl)c21)c1ccc(C2CC2)cc1 (single isomer, unassigned) [Cmpd 14] in the records?
Output: 49.6

---

Please provide measured half-life for the entries that follow.
Assay: Half-life in rat hepatocytes
Assay type: in vitro ADME
Conditions: read-out: Half life of cmpds
Report the figure along with its unit, number first.

Task: Which value of half-life has been reported for COc1ccc(C(=O)CC2(O)C(=O)Nc3c(Cl)ccc(Cl)c32)cc1 (racemic) in the records?
Output: 14.2 min

Task: Which value of half-life has been reported for O=C(CC1(O)C(=O)Nc2c(Cl)ccc(Cl)c21)c1ccc(N2CCCC2)cc1 (single isomer, unassigned) in the records?
Output: 18.8 min

Task: Which value of half-life has been reported for O=C(CC1(O)C(=O)Nc2c(Cl)ccc(Cl)c21)c1ccc(C2CC2)cc1 (single isomer, unassigned) in the records?
Output: 27.4 min

Task: Which value of half-life has been reported for CCOc1ccc2ccc(=O)oc2c1 [7-Ethoxycoumarin, reference compound] in the records?
Output: 38.2 min

---

Test system: PC3
Assay: CCK-8 tetrazolium tumor cell growth inhibition, PC3
Format: cell-based
Settings: Homo sapiens, PC-3; PC3, Prostate, no ETS rearrangement
pIC50: −log10 of the molar value.
Please provide measured pIC50 for the entries that follow.

Task: Which value of pIC50 has been reported for O=C(CC1(O)C(=O)Nc2c(Cl)ccc(Cl)c21)c1ccc(C2CC2)cc1 (single isomer, unassigned) in the records?
Output: < 5.30

Task: Which value of pIC50 has been reported for COc1ccc(C(=O)CC2(O)C(=O)Nc3c(Cl)ccc(Cl)c32)cc1 (single isomer, unassigned) in the records?
Output: < 5.30

---

Please provide measured Cmax for the entries that follow.
Experiment: Pharmacokinetics after IV and oral administration
Type: in vivo
Conditions: plasma, iv, 5 mg/kg, 5 mg/kg IV, captisol; BALB/c mice or Sprague Dawley rats

Task: Which value of Cmax has been reported for COc1ccc(C(=O)CC2(O)C(=O)Nc3c(Cl)ccc(Cl)c32)cc1 (single isomer, unassigned) in the records?
Output: 9380 ng/mL

Task: Which value of Cmax has been reported for O=C(CC1(O)C(=O)Nc2c(Cl)ccc(Cl)c21)c1ccc(N2CCCC2)cc1 (single isomer, unassigned) in the records?
Output: 14300 ng/mL

Task: Which value of Cmax has been reported for O=C(CC1(O)C(=O)Nc2c(Cl)ccc(Cl)c21)c1ccc(C2CC2)cc1 (single isomer, unassigned) in the records?
Output: 10900 ng/mL

Task: Which value of Cmax has been reported for CNc1ccc(C(=O)CC2(O)C(=O)Nc3c(Cl)ccc(Cl)c32)cc1 (single isomer, unassigned) in the records?
Output: 13000 ng/mL

---

Experiment: Pharmacokinetics after IV and oral administration
Type: in vivo
Settings: plasma, po, 100 mg/kg, 100 mg/kg po, PEG-400/tween; BALB/c mice or Sprague Dawley rats
Reported metric: bioavailability
Report the figure along with its unit, number first.

Task: Which value of bioavailability has been reported for O=C(CC1(O)C(=O)Nc2c(Cl)ccc(Cl)c21)c1ccc(C2CC2)cc1 (single isomer, unassigned) in the records?
Output: 100%

---

Test: Pharmacokinetics after IV and oral administration
Type: in vivo
Details: plasma, po, 25 mg/kg, 25 mg/kg po, labrasol:tetraglycol:water 72:8:20; BALB/c mice or Sprague Dawley rats
Reported metric: half-life (h)
Form entry: value (h) — number only.

Task: Which value of half-life has been reported for O=C(CC1(O)C(=O)Nc2c(Cl)ccc(Cl)c21)c1ccc(C2CC2)cc1 (single isomer, unassigned) in the records?
Output: 3.1

---

Please provide measured half-life for the entries that follow.
Assay: Pharmacokinetics after IV and oral administration
Type: in vivo
Conditions: plasma, iv, 5 mg/kg, 5 mg/kg IV, captisol; BALB/c mice or Sprague Dawley rats
Form entry: value (min) — number only.

Task: Which value of half-life has been reported for O=C(CC1(O)C(=O)Nc2c(Cl)ccc(Cl)c21)c1ccc(N2CCCC2)cc1 (single isomer, unassigned) in the records?
Output: 48

Task: Which value of half-life has been reported for CNc1ccc(C(=O)CC2(O)C(=O)Nc3c(Cl)ccc(Cl)c32)cc1 (single isomer, unassigned) in the records?
Output: 102

Task: Which value of half-life has been reported for O=C(CC1(O)C(=O)Nc2c(Cl)ccc(Cl)c21)c1ccc(C2CC2)cc1 (single isomer, unassigned) in the records?
Output: 48

---

Test: Pharmacokinetics, continuous infusion study in rat
Type: in vivo
Details: plasma, iv, 24 mg/kg/day
Description: Certain pharmacokinetics parameters were determined for certain compounds in vivo for intravenous and oral administration. Briefly, compounds were formulated and administered using IV bolus, continuous IV infusion or oral administration. Blood was collected at multiple time points over 24 hours and processed into plasma. Plasma was analyses for parent using LC/MS/MS. Certain parameters for certain compounds were obtained in duplicate.
Reported metric: half-life (min)
Form entry: value (min) — number only.

Task: Which value of half-life has been reported for O=C(CC1(O)C(=O)Nc2c(Cl)ccc(Cl)c21)c1ccc(C2CC2)cc1 (single isomer, unassigned) [Cmpd 14] in the records?
Output: 49.4

---

Experiment: Pharmacokinetics after IV and oral administration
Type: in vivo
Conditions: plasma, po, 25 mg/kg, 25 mg/kg po, labrasol:tetraglycol:water 72:8:20; BALB/c mice or Sprague Dawley rats
Reported metric: bioavailability (%)
Form entry: value (%) — number only.

Task: Which value of bioavailability has been reported for O=C(CC1(O)C(=O)Nc2c(Cl)ccc(Cl)c21)c1ccc(C2CC2)cc1 (single isomer, unassigned) in the records?
Output: 64

---

Please provide measured half-life for the entries that follow.
Assay: Half-life in mouse hepatocytes
Type: in vitro ADME
Conditions: read-out: Half life of cmpds
Report the figure along with its unit, number first.

Task: Which value of half-life has been reported for O=C(CC1(O)C(=O)Nc2c(Cl)ccc(Cl)c21)c1ccc(C2CC2)cc1 (single isomer, unassigned) [Cmpd 14] in the records?
Output: 62.8 min

Task: Which value of half-life has been reported for CCOc1ccc2ccc(=O)oc2c1 [7-Ethoxycoumarin, reference compound] in the records?
Output: 37.9 min

Task: Which value of half-life has been reported for O=C(CC1(O)C(=O)Nc2c(Cl)ccc(Cl)c21)c1ccc(N2CCCC2)cc1 (single isomer, unassigned) [Cmpd 18] in the records?
Output: 60 min

Task: Which value of half-life has been reported for COc1ccc(C(=O)CC2(O)C(=O)Nc3c(Cl)ccc(Cl)c32)cc1 (racemic) [Cmpd 1] in the records?
Output: 30.9 min

Task: Which value of half-life has been reported for O=c1ccc2ccc(O)cc2o1 [7-Hydroxycoumarin, reference compound] in the records?
Output: 15.8 min

---

Assay: Pharmacokinetics after IV and oral administration
Assay type: in vivo
Conditions: plasma, iv, 10 mg/kg, 10 mg/kg IV, captisol; BALB/c mice or Sprague Dawley rats
Description: Certain pharmacokinetics parameters were determined for certain compounds in vivo for intravenous and oral administration. Briefly, compounds were formulated and administered using IV bolus, continuous IV infusion or oral administration. Blood was collected at multiple time points over 24 hours and processed into plasma. Plasma was analyses for parent using LC/MS/MS. Certain parameters for certain compounds were obtained in duplicate.
Reported metric: Cmax (ng/mL)
Form entry: value (ng/mL) — number only.

Task: Which value of Cmax has been reported for O=C(CC1(O)C(=O)Nc2c(Cl)ccc(Cl)c21)c1ccc(C2CC2)cc1 (single isomer, unassigned) [Cmpd 14] in the records?
Output: 39800

---

Experiment: Pharmacokinetics, continuous infusion study in dog
Assay type: in vivo
Conditions: plasma, iv, 25 mg/kg/day
Reported metric: Vd (L/kg)
Form entry: value (L/kg) — number only.

Task: Which value of Vd has been reported for O=C(CC1(O)C(=O)Nc2c(Cl)ccc(Cl)c21)c1ccc(C2CC2)cc1 (single isomer, unassigned) [Cmpd 14] in the records?
Output: 5.66

---

Test: Pharmacokinetics, continuous infusion study in dog
Type: in vivo
Details: plasma, iv, 10 mg/kg/day
Reported metric: clearance (mL/min/kg)
Form entry: value (mL/min/kg) — number only.

Task: Which value of clearance has been reported for O=C(CC1(O)C(=O)Nc2c(Cl)ccc(Cl)c21)c1ccc(C2CC2)cc1 (single isomer, unassigned) in the records?
Output: 33.6

---

Test system: SKES cells (Ewing Sarcoma cell line)
Experiment: CCK-8 tetrazolium tumor cell growth inhibition, SKES
Format: cell-based
Details: Homo sapiens, SKES, ES, EWS-FLI1 Type 2
Reported metric: IC50

Task: Which value of IC50 has been reported for O=C(CC1(O)C(=O)Nc2c(Cl)ccc(Cl)c21)c1ccc(N2CCCC2)c(F)c1 (racemic) [Cmpd 21] in the records?
Output: > 5 µM

Task: Which value of IC50 has been reported for COC1CCC(C(=O)CC2(O)C(=O)Nc3c(Cl)ccc(Cl)c32)CC1 (racemic) [Cmpd 23] in the records?
Output: > 5 µM

Task: Which value of IC50 has been reported for COc1ccc(C(=O)CC2(O)C(=O)Nc3c(Cl)ccc(Cl)c32)cc1 (single isomer, unassigned) [Cmpd 2] in the records?
Output: < 5 µM

Task: Which value of IC50 has been reported for O=C(CC1(O)C(=O)Nc2c(Cl)ccc(Cl)c21)c1ccc(N2CC2)cc1 (racemic) [Cmpd 8] in the records?
Output: < 5 µM

Task: Which value of IC50 has been reported for O=C(CC1(O)C(=O)Nc2c(Cl)ccc(Cl)c21)c1ccc(O)cc1 (racemic) [Cmpd 34] in the records?
Output: > 5 µM

Task: Which value of IC50 has been reported for COC12CCC(C(=O)CC3(O)C(=O)Nc4c(Cl)ccc(Cl)c43)(CC1)CC2 (racemic) [Cmpd 24] in the records?
Output: > 5 µM

Task: Which value of IC50 has been reported for O=C(CC1(O)C(=O)Nc2c(Cl)ccc(Cl)c21)c1ccc(N2CCCC2)cc1 (single isomer, unassigned) [Cmpd 18] in the records?
Output: < 5 µM

Task: Which value of IC50 has been reported for CN(C)C12CCC(C(=O)CC3(O)C(=O)Nc4c(Cl)ccc(Cl)c43)(CC1)CC2 (racemic) [Cmpd 25] in the records?
Output: > 5 µM
